Test: Therapeutic index, ratio of CC50 for monkey VERO cells to IC50 for adult Brugia malayi
Assay type: cell-based
Settings: Vero cells, read-out: Ratio CC50/IC50
metric-name: selectivity ratio

**Query** So what's the measured selectivity ratio for this one? CC(C)c1cc(/C=N/Nc2nc3ccccc3s2)cc(/C=C/C(=O)c2cccs2)c1O
**Result** 44.9

**Query** Now the compound CCc1cc(/C=N/Nc2nc3ccccc3s2)cc(/C=C/C(=O)c2ccccc2)c1O
**Result** 11.2

###

Experiment: Cytotoxicity against African green monkey Vero cells after 72 hrs by resazurin dye-based fluorometric analysis
Type: cell-based
Settings: chlorocebus sabaeus
Please respond with reported CC50 at 72 h for every item in the list.
Express your answer in µM, writing the number without its unit.

**Query** So what's the measured CC50 at 72 h for this one? CC(C)c1cc(/C=N/Nc2nc3ccccc3s2)cc(/C=C/C(=O)c2cccs2)c1O
**Result** 95.3

**Query** Now the compound CCc1cc(/C=N/Nc2nc3ccccc3s2)cc(/C=C/C(=O)c2ccccc2)c1O
**Result** 48.6

###

Test: Inhibition of recombinant Brugia malayi TMK using dTMP as substrate by pyruvate kinase/lactate dehydrogenase coupled assay
Ki strictly under 20 µM means Fulfilled; at 20 µM or over means Not fulfilled.

**Query** I'd appreciate it if you could check whether CC(C)(C)c1cc(/C=N/Nc2nc3ccccc3s2)cc(/C=C/C(=O)c2ccc(F)cc2)c1O has Ki smaller than 20 µM.
**Result** Fulfilled

**Query** Now the molecule CC(C)c1cc(/C=N/Nc2nc3ccccc3s2)cc(/C=C/C(=O)c2ccc(Cl)cc2)c1O
**Result** Not fulfilled

**Query** Now the molecule CCC(C)c1cc(/C=N/Nc2nc3ccccc3s2)cc(/C=C/C(=O)c2ccc(F)cc2)c1O (stereo not given)
**Result** Fulfilled

**Query** Now the molecule CC(C)c1cc(/C=N/Nc2nc3ccccc3s2)cc(/C=C/C(=O)c2ccc(F)cc2)c1O
**Result** Not fulfilled

**Query** Now the molecule Cc1ccc(C(=O)/C=C/c2cc(/C=N/Nc3nc4ccccc4s3)cc(C(C)(C)C)c2O)cc1
**Result** Fulfilled

**Query** Now the molecule CCC(C)c1cc(/C=N/Nc2nc3ccccc3s2)cc(/C=C/C(=O)c2ccc(OC)cc2)c1O (stereo not given)
**Result** Fulfilled

**Query** Now the molecule CCCc1cc(/C=N/Nc2nc3ccccc3s2)cc(/C=C/C(=O)c2ccc(Cl)cc2)c1O
**Result** Not fulfilled

**Query** Now the molecule CCCc1cc(/C=N/Nc2nc3ccccc3s2)cc(/C=C/C(=O)c2ccc(OC)c(OC)c2)c1O
**Result** Not fulfilled

**Query** Now the molecule Cc1cc(/C=N/Nc2nc3ccccc3s2)cc(/C=C/C(=O)c2ccccc2)c1O
**Result** Fulfilled

###

Please respond with reported Ki for every item in the list.
Assay: Inhibition of recombinant Brugia malayi TMK using dTMP as substrate by pyruvate kinase/lactate dehydrogenase coupled assay
Express your answer in µM, writing the number without its unit.

**Query** So what's the measured Ki for this one? CC(C)c1cc(/C=N/Nc2nc3ccccc3s2)cc(/C=C/C(=O)c2cccs2)c1O
**Result** 2.02

**Query** Now the molecule COc1ccc(C(=O)/C=C/c2cc(/C=N/Nc3nc4ccccc4s3)cc(C(C)C)c2O)cc1
**Result** 3.09

**Query** Now the molecule CCc1cc(/C=N/Nc2nc3ccccc3s2)cc(/C=C/C(=O)c2ccccc2)c1O
**Result** 2.49

**Query** Now the molecule COc1ccc(C(=O)/C=C/c2cc(/C=N/Nc3nc4ccccc4s3)cc(C(C)C)c2O)cc1OC
**Result** 50.6

**Query** Now the molecule CCc1cc(/C=N/Nc2nc3ccccc3s2)cc(/C=C/C(=O)c2ccc(OC)cc2)c1O
**Result** 30.4
